Target or test system: POsterior Segregation (Caenorhabditis elegans, UniProt G5EF15)
Sequence (G5EF15 whole entry): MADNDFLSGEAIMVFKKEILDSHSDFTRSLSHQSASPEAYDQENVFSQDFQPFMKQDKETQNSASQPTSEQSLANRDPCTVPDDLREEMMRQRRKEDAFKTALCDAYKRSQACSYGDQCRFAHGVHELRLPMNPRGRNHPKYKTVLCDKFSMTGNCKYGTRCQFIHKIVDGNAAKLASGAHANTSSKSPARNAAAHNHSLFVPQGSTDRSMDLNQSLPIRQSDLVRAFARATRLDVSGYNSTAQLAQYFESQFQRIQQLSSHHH
Protocol: inhibitors of POS-1/mex-3 RNA binding, dose response, biochemical, fluorescence polarization (AID 1964)
We begin with a simple list: items and their reported EC50.
Property measured: EC50

compound="CC(=O)Nc1ccc(N=CCC(=O)c2ccc(C)o2)cc1 [MLS000089004]" target_or_test_system="POsterior Segregation (Caenorhabditis elegans, UniProt G5EF15)" reported="> 300 µM"
compound="CN(C)c1ccc(O)c2c1CC1CC3C(N(C)C)C(=O)C(C(N)=O)C(=O)[C@@]3(O)C(=O)C1C2=O (stereo partly specified)" target_or_test_system="POsterior Segregation (Caenorhabditis elegans, UniProt G5EF15)" reported="> 300 µM"
compound="COc1ccccc1N1C(=O)NC(=O)C(=Cc2c[nH]c3ccccc23)C1=O [SMR000495900]" target_or_test_system="POsterior Segregation (Caenorhabditis elegans, UniProt G5EF15)" reported="> 300 µM"
compound="N#CC1=C2CCOCC2C(c2cccnc2)C(C#N)(C#N)C1=N (stereo unspecified)" target_or_test_system="POsterior Segregation (Caenorhabditis elegans, UniProt G5EF15)" reported="> 300 µM"
compound="Cc1ccccc1NN=C1C(=O)N(C)c2ccccc21 [MLS001203477]" target_or_test_system="POsterior Segregation (Caenorhabditis elegans, UniProt G5EF15)" reported="> 300 µM"
compound=CCN(CC)CCNC=C1C(=O)NC(=O)N(CCc2ccccc2)C1=O target_or_test_system="POsterior Segregation (Caenorhabditis elegans, UniProt G5EF15)" reported="> 300 µM"
compound=CCCCN1C(=O)NC(=O)C(=CNNC(=O)c2ccncc2)C1=O target_or_test_system="POsterior Segregation (Caenorhabditis elegans, UniProt G5EF15)" reported="> 300 µM"
compound="COc1ccc(CCN2C(=O)NC(=O)C(=CNc3ccc(NC(C)=O)cc3)C2=O)cc1OC [MLS000332913]" target_or_test_system="POsterior Segregation (Caenorhabditis elegans, UniProt G5EF15)" reported="> 300 µM"
compound="COc1ccc(OC)c(C2C(C(=O)c3ccco3)C(=O)C(=O)N2CCN2CCOCC2)c1 (stereo unspecified)" target_or_test_system="POsterior Segregation (Caenorhabditis elegans, UniProt G5EF15)" reported="> 300 µM"
compound="CCCCOc1c(Br)cc(CN=O)cc1OCC [3-bromo-4-butoxy-5-ethoxy-benzaldoxime]" target_or_test_system="POsterior Segregation (Caenorhabditis elegans, UniProt G5EF15)" reported="> 300 µM"
compound="O=CC(C=Nc1ccccn1)c1nc2cc(Cl)ccc2o1 (stereo unspecified)" target_or_test_system="POsterior Segregation (Caenorhabditis elegans, UniProt G5EF15)" reported="67.7 µM"
compound=N#CC1=C2CCOC[C@@H]2[C@@H](c2ccsc2)C(C#N)(C#N)C1=N target_or_test_system="POsterior Segregation (Caenorhabditis elegans, UniProt G5EF15)" reported="> 300 µM"
compound="N#CC1C(=N)OC2=C(C(=O)CCC2)C1c1ccc2c(c1)OCO2 (stereo unspecified)" target_or_test_system="POsterior Segregation (Caenorhabditis elegans, UniProt G5EF15)" reported="> 300 µM"
compound=Cc1c(NC=C2C(=O)NC(=O)N(Cc3ccccc3)C2=O)c(=O)n(-c2ccccc2)n1C target_or_test_system="POsterior Segregation (Caenorhabditis elegans, UniProt G5EF15)" reported="> 300 µM"
compound=c1ccc(CN=Nc2nc3ccccc3[nH]2)nc1 target_or_test_system="POsterior Segregation (Caenorhabditis elegans, UniProt G5EF15)" reported="72.9 µM"
compound=Cc1[nH]c2ccccc2c1/C=C1\N=C(c2ccc(F)cc2)OC1=O target_or_test_system="POsterior Segregation (Caenorhabditis elegans, UniProt G5EF15)" reported="> 300 µM"
compound="Cc1cc(=O)n(-c2ccc(C(=O)O)c(N)c2)[nH]1 [MLS000690508]" target_or_test_system="POsterior Segregation (Caenorhabditis elegans, UniProt G5EF15)" reported="85.5 µM"
compound=O=C(CC(=O)c1ccccc1)C(=O)NNC(=O)c1ccccc1[N+](=O)[O-] target_or_test_system="POsterior Segregation (Caenorhabditis elegans, UniProt G5EF15)" reported="70 µM"
compound="COc1ccc(C=C2CCCC(C(=O)C(F)(F)F)C2=O)cc1 (stereo unspecified) [SMR000142699]" target_or_test_system="POsterior Segregation (Caenorhabditis elegans, UniProt G5EF15)" reported="36 µM"
compound=COc1ccccc1OCC(=O)NN=Cc1c(O)ccc2ccccc12 target_or_test_system="POsterior Segregation (Caenorhabditis elegans, UniProt G5EF15)" reported="228 µM"
compound=Cc1ccc(N=CCC(=O)c2sc(-c3ccccc3)nc2C)cc1 target_or_test_system="POsterior Segregation (Caenorhabditis elegans, UniProt G5EF15)" reported="46.4 µM"

Reference source: BindingDB's records for doi:10.7270/Q28G8J4C
